Target: human TLR7 (Homo sapiens, UniProt Q9NYK1)
Sequence (Q9NYK1 27-1049): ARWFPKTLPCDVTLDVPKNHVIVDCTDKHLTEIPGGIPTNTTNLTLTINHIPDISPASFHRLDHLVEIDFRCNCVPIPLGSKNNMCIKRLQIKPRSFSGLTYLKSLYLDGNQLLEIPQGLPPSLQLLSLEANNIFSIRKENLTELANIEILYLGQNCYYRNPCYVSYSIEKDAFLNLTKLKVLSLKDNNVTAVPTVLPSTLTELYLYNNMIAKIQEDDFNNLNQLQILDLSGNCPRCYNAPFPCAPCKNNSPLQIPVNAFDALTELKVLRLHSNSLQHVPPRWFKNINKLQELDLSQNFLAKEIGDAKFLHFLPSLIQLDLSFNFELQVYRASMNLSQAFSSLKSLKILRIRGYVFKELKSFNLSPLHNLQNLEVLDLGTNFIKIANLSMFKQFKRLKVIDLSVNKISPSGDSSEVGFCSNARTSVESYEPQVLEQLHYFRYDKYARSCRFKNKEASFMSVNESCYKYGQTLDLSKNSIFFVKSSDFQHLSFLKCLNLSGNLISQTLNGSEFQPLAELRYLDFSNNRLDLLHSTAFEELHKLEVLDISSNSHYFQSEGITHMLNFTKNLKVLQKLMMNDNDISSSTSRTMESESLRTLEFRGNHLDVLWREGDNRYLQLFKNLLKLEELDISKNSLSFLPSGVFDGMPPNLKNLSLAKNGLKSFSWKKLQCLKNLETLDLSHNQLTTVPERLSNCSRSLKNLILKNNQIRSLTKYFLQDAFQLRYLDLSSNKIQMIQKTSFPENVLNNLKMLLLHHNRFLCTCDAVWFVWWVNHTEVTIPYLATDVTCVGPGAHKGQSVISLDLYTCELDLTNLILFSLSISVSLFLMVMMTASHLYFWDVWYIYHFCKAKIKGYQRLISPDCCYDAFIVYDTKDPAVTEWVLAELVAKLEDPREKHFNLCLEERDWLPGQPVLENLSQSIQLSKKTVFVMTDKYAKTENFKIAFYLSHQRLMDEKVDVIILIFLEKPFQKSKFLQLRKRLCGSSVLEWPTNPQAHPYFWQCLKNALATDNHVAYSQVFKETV
Experiment: TLR7 inhibition reporter assay (HEK-Blue cells, SEAP reporter, gardiquimod stimulation)
Conditions: HEK-Blue cells overexpressing human TLR7, SEAP reporter, gardiquimod 7.5 μM
Excerpt: TLR7/8/9 Inhibition Reporter Assays HEK-Blue™-cells (Invivogen) overexpressing human TLR7, TLR8 or TLR9 receptors were used for screening inhibitors of these receptors using an inducible SEAP (secreted embryonic alkaline phosphatase) reporter gene under the control of the IFN-β minimal promoter fused to five NF-κB and AP-1-binding sites. […]
molecules and their reported IC50

Molecule: CC(C)c1c(-c2cnc3ccnn3c2)[nH]c2ccc(C3CCN(C(=O)C[C@H](C)O)CC3)cc12
IC50: > 3130 nM
--
Molecule: CNC(=O)CN1CCC(c2ccc3[nH]c(-c4ccc5c(cnn5C)c4C)c(C(C)C)c3c2)CC1
IC50: < 100 nM
--
Molecule: Cc1cc(-c2[nH]c3ccc(C4CCN(C(=O)CCN(C)C(C)C)CC4)cc3c2C(C)C)cn2nnnc12
IC50: < 100 nM
--
Molecule: CC(C)c1c(-c2ccc3[nH]nnc3c2)[nH]c2ccc(C3CCNCC3)cc12
IC50: < 100 nM
--
Molecule: Cc1cc(-c2[nH]c3ccc(C4CCN(CC(=O)N(C)C)CC4)cc3c2C(C)C)cc2ncnn12
IC50: < 100 nM
--
Molecule: CCc1c(-c2cnc3cnccn23)[nH]c2ccc(C3CCNCC3)cc12
IC50: 1000 to 50000 nM
--
Molecule: CC(C)c1c(-c2ccnc3[nH]ncc23)[nH]c2ccc(C3CCN(C(=O)C4CCCNC4)CC3)cc12 (centres unmarked)
IC50: < 100 nM
--
Molecule: CC(C)c1c(-c2ccc3ncnn3n2)[nH]c2ccc(C3CCN(C4CCOCC4)CC3)cc12
IC50: < 100 nM

---

Molecular target: human TLR8 (Homo sapiens, UniProt Q9NR97)
Experiment: TLR8 inhibition reporter assay (HEK-Blue cells, SEAP reporter, R848 stimulation)
Conditions: HEK-Blue cells overexpressing human TLR8, SEAP reporter, R848 15.9 μM
Reported values of IC50 for individual entries

Compound: Cc1c(-c2ccnc3cc[nH]c23)[nH]c2ccc(C3CCNCC3)cc12 [Example 23]
Tested on: human TLR8 (Homo sapiens, UniProt Q9NR97)
IC50: < 100 nM
--
Compound: CCN1CCC(N2CCC(c3ccc4[nH]c(-c5ccnc6[nH]ccc56)c(C)c4c3)CC2)CC1 [Example 811]
Tested on: human TLR8 (Homo sapiens, UniProt Q9NR97)
IC50: < 100 nM
--
Compound: CC(C)c1c(-c2ccc3ncnn3n2)[nH]c2ccc(C3CCNCC3)cc12 [Example 242]
Tested on: human TLR8 (Homo sapiens, UniProt Q9NR97)
IC50: < 100 nM
--
Compound: Cc1c(-c2ccnc3[nH]ncc23)[nH]c2ccc(C3CCNCC3)cc12 [Example 231]
Tested on: human TLR8 (Homo sapiens, UniProt Q9NR97)
IC50: 100 to 1000 nM

---

Target: human TLR8 (Homo sapiens, UniProt Q9NR97)
Sequence (Q9NR97 27-1041): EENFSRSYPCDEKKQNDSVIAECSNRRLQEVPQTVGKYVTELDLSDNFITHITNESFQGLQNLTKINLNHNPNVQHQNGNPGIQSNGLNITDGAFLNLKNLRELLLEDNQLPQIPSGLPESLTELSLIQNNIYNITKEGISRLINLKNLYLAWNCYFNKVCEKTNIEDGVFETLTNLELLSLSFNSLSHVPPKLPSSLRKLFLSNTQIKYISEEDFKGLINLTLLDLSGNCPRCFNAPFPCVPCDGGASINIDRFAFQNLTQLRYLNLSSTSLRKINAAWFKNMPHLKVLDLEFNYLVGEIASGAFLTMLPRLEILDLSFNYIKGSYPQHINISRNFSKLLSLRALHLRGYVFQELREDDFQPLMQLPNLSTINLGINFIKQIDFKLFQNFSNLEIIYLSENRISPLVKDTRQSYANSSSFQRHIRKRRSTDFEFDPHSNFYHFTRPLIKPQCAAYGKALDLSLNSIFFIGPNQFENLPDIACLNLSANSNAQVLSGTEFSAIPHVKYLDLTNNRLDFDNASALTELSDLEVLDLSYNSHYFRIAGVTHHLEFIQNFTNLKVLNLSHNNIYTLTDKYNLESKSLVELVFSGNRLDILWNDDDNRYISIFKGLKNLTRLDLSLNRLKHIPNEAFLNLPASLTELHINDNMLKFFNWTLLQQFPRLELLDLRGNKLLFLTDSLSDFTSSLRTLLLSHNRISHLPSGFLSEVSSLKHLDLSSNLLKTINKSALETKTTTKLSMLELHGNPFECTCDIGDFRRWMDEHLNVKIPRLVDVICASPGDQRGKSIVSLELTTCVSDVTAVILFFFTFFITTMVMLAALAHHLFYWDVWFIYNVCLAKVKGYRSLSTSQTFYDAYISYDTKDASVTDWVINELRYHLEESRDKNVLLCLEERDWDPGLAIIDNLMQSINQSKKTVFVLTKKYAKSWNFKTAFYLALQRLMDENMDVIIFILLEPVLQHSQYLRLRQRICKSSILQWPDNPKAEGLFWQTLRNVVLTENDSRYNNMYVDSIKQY
Assay: TLR8 inhibition reporter assay (HEK-Blue cells, SEAP reporter, R848 stimulation)
Conditions: HEK-Blue cells overexpressing human TLR8, SEAP reporter, R848 15.9 μM
pIC50: −log10 of the molar value.
Consider the following compounds and their measured pIC50 readings.

Chemical structure: Cc1c(-c2ccnc3[nH]cc(C)c23)[nH]c2ccc(C3CCNCC3)cc12
pIC50: 6.00 to 7.00
--
Chemical structure: CC(C)c1c(-c2cc3c(s2)CNCC3)[nH]c2ccc(C3CCNCC3)cc12
pIC50: 4.30 to 6.00
--
Chemical structure: CC(C)c1c(-c2ccc3c(N)noc3c2)[nH]c2ccc(C3CCNCC3)cc12
pIC50: 6.00 to 7.00
--
Chemical structure: CCc1c(-c2c(C)cnc3[nH]ccc23)[nH]c2ccc(C3CCNCC3)cc12
pIC50: > 7.00

---

The reader will find reported pIC50 values listed item by item below.
Biological target: human TLR8 (Homo sapiens, UniProt Q9NR97)
Test: TLR8 inhibition reporter assay (HEK-Blue cells, SEAP reporter, R848 stimulation)
Settings: HEK-Blue cells overexpressing human TLR8, SEAP reporter, R848 15.9 μM
pIC50: −log10 of the molar value.

Chemical structure: Cc1cc(-c2[nH]c3ccc(C4CCN(C(=O)CN5CCC(F)(F)CC5)CC4)cc3c2C(C)C)cn2nnnc12
pIC50: 6.00 to 7.00
--
Chemical structure: Cc1ccnc2c1c(-c1[nH]c3ccc(C4CCN(C5CCOCC5)CC4)cc3c1C(C)C)cn2C
pIC50: > 7.00
--
Chemical structure: Cc1c(-c2[nH]c3ccc(C4CCN(CC(C)(C)O)CC4)cc3c2C(C)C)cn2ccnc2c1Cl
pIC50: > 7.00
--
Chemical structure: COc1cc(-c2[nH]c3ccc(C4CCN(CCS(C)(=O)=O)CC4)cc3c2C(C)C)nn2ncnc12
pIC50: > 7.00
--
Chemical structure: Cc1nc2c(-c3[nH]c4ccc(C5CCNCC5)cc4c3C(C)C)cccn2n1
pIC50: > 7.00
--
Chemical structure: Cc1c(-c2ncnc3[nH]ccc23)[nH]c2ccc(C3CCN(C4CCN(C(C)C)CC4)CC3)cc12
pIC50: > 7.00
--
Chemical structure: Cc1cc2cc(-c3[nH]c4ccc(C5CCN(CC(C)(C)O)CC5)cc4c3C(C)C)cc(CC(C)C)n2n1
pIC50: < 5.51
